# Tested on: S. aureus A-9537
# Assay overview: MIC by tube dilution in Nutrient Broth
# Assay type: cell-based
# Condition info: additional data; overnight at 37° C.
Each entry below lists one item and its recorded MIC value.
Property measured: MIC (µg/mL)

| Molecule | Unit of measure | Obs value |
| --- | --- | --- |
| CC(C[n+]1ccccc1)SC1=C(C(=O)[O-])N2C(=O)[C@H]([C@@H](C)O)[C@H]2C1 (single isomer, unassigned) [Ex. 15 (cmp. "A")] | µg/mL | 0.016 |
| CC(C[n+]1ccccc1)SC1=C(C(=O)[O-])N2C(=O)[C@H]([C@@H](C)O)[C@H]2C1 (single isomer, unassigned) [Ex. 15 (cmp. "B")] | µg/mL | 0.004 |
| C[C@@H](O)[C@H]1C(=O)N2C(C(=O)[O-])=C(SC3CCCCC3[n+]3ccccc3)C[C@H]12 (single isomer, unassigned) [Ex. 16 (cmp. "A")] | µg/mL | 0.06 |
| C[C@@H](O)[C@H]1C(=O)N2C(C(=O)[O-])=C(SC3CCCCC3[n+]3ccccc3)C[C@H]12 (single isomer, unassigned) [Ex. 16 (cmp. "B")] | µg/mL | 0.13 |

---

# Assay overview: half-life in phosphate buffer pH 7.4
# Assay type: physicochemical
# Condition info: pH 7.4, t1/2
Property measured: half-life (h)

| Compound | Obs value |
| --- | --- |
| C[C@@H](O)[C@H]1C(=O)N2C(C(=O)[O-])=C(SC3CCCCC3[n+]3ccccc3)C[C@H]12 (single isomer, unassigned) | 16.6 |
